measurement.description: CelltiterGlo viability cell assay
Type: cell-based
experimental.context: human, MDA-MB-436 breast cancer cells, MDA MB436, 6 day, 0.1 uM; read-out: viability Replicate 3
parameter: viability at 6 day, 0.1 µM (%)

> print(dat)
                               input.smiles                   parameter  val
1  COc1cc(OC)cc(-c2noc(N3CCN(C)C4(CCN(c5ccnc(C)c5)CC4)C3)n2)c1  viability at 6 day, 0.1 µM  106

----------
measurement.description: CelltiterGlo viability cell assay
Type: cell-based
experimental.context: human, SKMM2 multiple myeloma cells, SKMM2, 3 day, 3 uM; read-out: viability Replicate 2
parameter: viability at 3 day, 3 µM (%)

> print(dat)
                                   compound   val
1  COc1cc(OC)cc(-c2noc(N3CCN(C)C4(CCN(c5ccnc(C)c5)CC4)C3)n2)c1 [MRK-740]  98.3

----------
measurement.description: CelltiterGlo viability cell assay
Assay type: cell-based
experimental.context: human, SKMM2 multiple myeloma cells, SKMM2, 6 day, 0.3 uM; read-out: viability Replicate 2
parameter: viability at 6 day, 0.3 µM (%)

> print(dat)
                               input.smiles  val
1  COc1cc(OC)cc(-c2noc(N3CCN(C)C4(CCN(c5ccnc(C)c5)CC4)C3)n2)c1  106

----------
measurement.description: CelltiterGlo viability cell assay
Type: cell-based
experimental.context: human, MDA-MB-436 cells, MDA MB436, 3 day, 0.3 uM; read-out: viability Replicate 2
parameter: viability at 3 day, 0.3 µM

> print(dat)
                               input.smiles   val
1  COc1cc(OC)cc(-c2noc(N3CCN(C)C4(CCN(c5ccnc(C)c5)CC4)C3)n2)c1  100%

----------
measurement.description: CelltiterGlo viability cell assay
Format: cell-based
experimental.context: human, RPMI-8226 cells (multiple myeloma line), 8226, 6 day, 0.1 uM; read-out: viability Replicate 3
parameter: viability at 6 day, 0.1 µM (%)

> print(dat)
                               input.smiles                   parameter  unit.abbreviation  val
1  COc1cc(OC)cc(-c2noc(N3CCN(C)C4(CCN(c5ccnc(C)c5)CC4)C3)n2)c1  viability at 6 day, 0.1 µM                  %  102

----------
measurement.description: CelltiterGlo viability cell assay
Type: cell-based
experimental.context: human, MDA-MB-436 breast cancer cells, MDA MB436, 6 day, 0.03 uM; read-out: viability Average
parameter: viability at 6 day, 0.03 µM (%)

> print(dat)
                                   compound  val
1  COc1cc(OC)cc(-c2noc(N3CCN(C)C4(CCN(c5ccnc(C)c5)CC4)C3)n2)c1 [MRK-740]  102

----------
measurement.description: CelltiterGlo viability cell assay
Assay type: cell-based
experimental.context: human, HCC1806 breast cancer cells, HCC1806, 6 day, 30 uM; read-out: viability Replicate 3
parameter: viability at 6 day, 30 µM

> print(dat)
                               input.smiles                  parameter    val
1  COc1cc(OC)cc(-c2noc(N3CCN(C)C4(CCN(c5ccnc(C)c5)CC4)C3)n2)c1  viability at 6 day, 30 µM  4.53%

----------
measurement.description: CelltiterGlo viability cell assay
Type: cell-based
experimental.context: human, RPMI-8226 multiple myeloma cells, 8226, 6 day, 30 uM; read-out: viability Replicate 3
parameter: viability at 6 day, 30 µM (%)

> print(dat)
                               input.smiles                  parameter  unit.abbreviation   val
1  COc1cc(OC)cc(-c2noc(N3CCN(C)C4(CCN(c5ccnc(C)c5)CC4)C3)n2)c1  viability at 6 day, 30 µM                  %  73.5

----------
measurement.description: CelltiterGlo viability cell assay
Type: cell-based
experimental.context: human, SKMM2 multiple myeloma cells, SKMM2, 6 day, 3 uM; read-out: viability Average
Description: Supplementary Figure 13. […] Viability of (a) Multiple Myeloma lines and (b) Breast Cancer cell lines following 3 or 6 days treatment with […] manufacturer’s instructions as described in the Supplementary methods. Data are normalized to DMSO control. N=3 biological replicates, +/- SEM. Source data are provided as a Source Data […] CelltiterGlo viability cell assay […]
parameter: viability at 6 day, 3 µM

> print(dat)
                                   compound    val
1  COc1cc(OC)cc(-c2noc(N3CCN(C)C4(CCN(c5ccnc(C)c5)CC4)C3)n2)c1 [MRK-740]  96.8%

----------
measurement.description: CelltiterGlo viability cell assay
Assay type: cell-based
experimental.context: human, HCC1143 breast cancer cells, HCC1143, 6 day, 1 uM; read-out: viability Replicate 1
parameter: viability at 6 day, 1 µM (%)

> print(dat)
                               input.smiles  val
1  COc1cc(OC)cc(-c2noc(N3CCN(C)C4(CCN(c5ccnc(C)c5)CC4)C3)n2)c1  114

----------
measurement.description: CelltiterGlo viability cell assay
Type: cell-based
experimental.context: human, CAL851 cells, CAL851, 3 day, 0.1 uM; read-out: viability Replicate 1
parameter: viability at 3 day, 0.1 µM (%)

> print(dat)
                               input.smiles   val
1  COc1cc(OC)cc(-c2noc(N3CCN(C)C4(CCN(c5ccnc(C)c5)CC4)C3)n2)c1  97.5

----------
measurement.description: CelltiterGlo viability cell assay
Format: cell-based
experimental.context: human, RPMI-8226 cells (multiple myeloma line), 8226, 6 day, 0.1 uM; read-out: viability Replicate 2
parameter: viability at 6 day, 0.1 µM (%)

> print(dat)
                                   compound  val
1  COc1cc(OC)cc(-c2noc(N3CCN(C)C4(CCN(c5ccnc(C)c5)CC4)C3)n2)c1 [MRK-740]  102

----------
measurement.description: CelltiterGlo viability cell assay
Assay type: cell-based
experimental.context: human, HCC1806 breast cancer cells, HCC1806, 3 day, 0.03 uM; read-out: viability Replicate 3
From the text: Supplementary Figure 13. […] Viability of (a) Multiple Myeloma lines and (b) Breast Cancer cell lines following 3 or 6 days treatment with […] manufacturer’s instructions as described in the Supplementary methods. Data are normalized to DMSO control. N=3 biological replicates, +/- SEM. Source data are provided as a Source Data […] CelltiterGlo viability cell assay […]
parameter: viability at 3 day, 0.03 µM

> print(dat)
                                   molecule                    parameter   val
1  COc1cc(OC)cc(-c2noc(N3CCN(C)C4(CCN(c5ccnc(C)c5)CC4)C3)n2)c1 [MRK-740]  viability at 3 day, 0.03 µM  104%

----------
measurement.description: CelltiterGlo viability cell assay
Type: cell-based
experimental.context: human, MDA-MB-436 breast cancer cells, MDA MB436, 6 day, 0.03 uM; read-out: viability Replicate 3
parameter: viability at 6 day, 0.03 µM (%)

> print(dat)
                                   molecule  unit.abbreviation  val
1  COc1cc(OC)cc(-c2noc(N3CCN(C)C4(CCN(c5ccnc(C)c5)CC4)C3)n2)c1 [MRK-740]                  %  106

----------
measurement.description: CelltiterGlo viability cell assay
Assay type: cell-based
experimental.context: human, SKMM2 multiple myeloma cells, SKMM2, 6 day, 0.3 uM; read-out: viability Replicate 1
parameter: viability at 6 day, 0.3 µM (%)

> print(dat)
                               input.smiles  unit.abbreviation   val
1  COc1cc(OC)cc(-c2noc(N3CCN(C)C4(CCN(c5ccnc(C)c5)CC4)C3)n2)c1                  %  88.2

----------
measurement.description: CelltiterGlo viability cell assay
Type: cell-based
experimental.context: human, HCC1143 breast cancer cells, HCC1143, 3 day, 1 uM; read-out: viability Average
parameter: viability at 3 day, 1 µM (%)

> print(dat)
                                   compound                 parameter   val
1  COc1cc(OC)cc(-c2noc(N3CCN(C)C4(CCN(c5ccnc(C)c5)CC4)C3)n2)c1 [MRK-740]  viability at 3 day, 1 µM  97.8

----------
measurement.description: CelltiterGlo viability cell assay
Format: cell-based
experimental.context: human, SKMM2 multiple myeloma cells, SKMM2, 3 day, 0.3 uM; read-out: viability Replicate 1
parameter: viability at 3 day, 0.3 µM (%)

> print(dat)
                               input.smiles  val
1  COc1cc(OC)cc(-c2noc(N3CCN(C)C4(CCN(c5ccnc(C)c5)CC4)C3)n2)c1  101
